TARGET_DESC: wild-type and mutant CD3 binding domains harbored within TROP2 TCE constructs
MEASUREMENT_NOTES: ELISA binding of peptide masks to wild-type and mutated TROP2 TCEs
CONDITION_DESCRIPTION: read-out: TCE-13 (3085) (S110A) EC50; captured biotinylated peptide or CD3-biotin; binding of TCE-13, anti-CD3 S110A
Recorded pEC50, one value per entry.
Would you please state pEC50, meaning minus log10 of the concentration in mol/L, as a bare number?

Ask: Which pEC50 is listed for CC(C)C[C@@H]1NC(=O)[C@@H](NC(=O)[C@H](C)NC(=O)[C@H](CO)NC(=O)CN)CSSC[C@@H](C(=O)N2CCC[C@H]2C(=O)N[C@@H](Cc2ccc(O)cc2)C(=O)O)NC(=O)[C@H](C(C)C)NC(=O)[C@H](CCC(=O)O)NC(=O)[C@H](Cc2c[nH]c3ccccc23)NC(=O)[C@H](CCC(=O)O)NC(=O)[C@@H]2CCCN2C(=O)CNC1=O [Peptide-11] ?
Result: 8.42

Ask: Which pEC50 is listed for CC(C)C[C@@H]1NC(=O)[C@@H](NC(=O)[C@H](CCC(N)=O)NC(=O)[C@H](CO)NC(=O)[C@H](C)N)CSSC[C@@H](C(=O)N2CCC[C@H]2C(=O)N[C@@H](Cc2ccc(O)cc2)C(=O)O)NC(=O)[C@H](C(C)C)NC(=O)[C@H](CCC(=O)O)NC(=O)[C@H](Cc2c[nH]c3ccccc23)NC(=O)[C@H](CCC(=O)O)NC(=O)[C@@H]2CCCN2C(=O)CNC1=O [Peptide-10] ?
Result: 8.46

Now, please, on to the next compound.
Ask: Which pEC50 is listed for CC(C)C[C@@H]1NC(=O)[C@@H](NC(=O)[C@H](CCC(N)=O)NC(=O)[C@H](CO)NC(=O)CN)CSSC[C@@H](C(=O)N2CCC[C@H]2C(=O)N[C@@H](Cc2ccc(O)cc2)C(=O)O)NC(=O)[C@H](C(C)C)NC(=O)[C@H](CCC(=O)O)NC(=O)[C@H](Cc2c[nH]c3ccccc23)NC(=O)[C@H](CCC(=O)O)NC(=O)[C@@H]2CCCN2C(=O)CNC1=O [Peptide-2] ?
Result: 8.44
